test system: Escherichia coli TOP10; assay: shrunken log2 fold change of peptide-encoding DNA abundance (4.5 h post-induction vs induction); higher = less antimicrobial activity (less host growth inhibition); details: time post-induction: 4.5 h; library: site-saturation at positions 5, 18, 19, 20;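 note: peptides expressed intracellularly from a pBAD plasmid library in pooled LB shake-flask culture, induced with 0.3% L-arabinose, DNA abundance read by NGS, three biological replicates, DESeq2 with apeglm shrinkage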
Mark FALSE for shrunken log2 fold change values under 0.3, and TRUE for everything at or above.

{"MONOMER SEQUENCE": "RRIRGRPPRLPRPRPRPITYPRP", "LABEL CLASS": "FALSE"}
{"MONOMER SEQUENCE": "RRIRGRPPRLPRPRPRPNRWPRP", "LABEL CLASS": "TRUE"}
{"MONOMER SEQUENCE": "RRIRGRPPRLPRPRPRPMWEPRP", "LABEL CLASS": "TRUE"}
{"MONOMER SEQUENCE": "RRIRKRPPRLPRPRPRPEPMPRP", "LABEL CLASS": "TRUE"}
{"MONOMER SEQUENCE": "RRIRTRPPRLPRPRPRPWHEPRP", "LABEL CLASS": "FALSE"}
{"MONOMER SEQUENCE": "RRIRFRPPRLPRPRPRPHWHPRP", "LABEL CLASS": "FALSE"}
{"MONOMER SEQUENCE": "RRIRVRPPRLPRPRPRPTQGPRP", "LABEL CLASS": "FALSE"}
{"MONOMER SEQUENCE": "RRIRGRPPRLPRPRPRPDRGPRP", "LABEL CLASS": "FALSE"}
{"MONOMER SEQUENCE": "RRIRKRPPRLPRPRPRPDRIPRP", "LABEL CLASS": "FALSE"}
{"MONOMER SEQUENCE": "RRIRNRPPRLPRPRPRPDHNPRP", "LABEL CLASS": "FALSE"}
{"MONOMER SEQUENCE": "RRIRFRPPRLPRPRPRPRKKPRP", "LABEL CLASS": "FALSE"}
{"MONOMER SEQUENCE": "RRIRGRPPRLPRPRPRPMPSPRP", "LABEL CLASS": "TRUE"}
{"MONOMER SEQUENCE": "RRIRGRPPRLPRPRPRPWKNPRP", "LABEL CLASS": "FALSE"}
{"MONOMER SEQUENCE": "RRIRFRPPRLPRPRPRPPSSPRP", "LABEL CLASS": "FALSE"}
{"MONOMER SEQUENCE": "RRIRLRPPRLPRPRPRPVHMPRP", "LABEL CLASS": "FALSE"}

Hey, just so you know, these numbers are from the supplement of paper PMC9112550.
